Provenance of the data: patent US20070037752A1

pIC50 reference
- System under test: UniProt P15144
- Sequence (P15144 whole entry, species assumed): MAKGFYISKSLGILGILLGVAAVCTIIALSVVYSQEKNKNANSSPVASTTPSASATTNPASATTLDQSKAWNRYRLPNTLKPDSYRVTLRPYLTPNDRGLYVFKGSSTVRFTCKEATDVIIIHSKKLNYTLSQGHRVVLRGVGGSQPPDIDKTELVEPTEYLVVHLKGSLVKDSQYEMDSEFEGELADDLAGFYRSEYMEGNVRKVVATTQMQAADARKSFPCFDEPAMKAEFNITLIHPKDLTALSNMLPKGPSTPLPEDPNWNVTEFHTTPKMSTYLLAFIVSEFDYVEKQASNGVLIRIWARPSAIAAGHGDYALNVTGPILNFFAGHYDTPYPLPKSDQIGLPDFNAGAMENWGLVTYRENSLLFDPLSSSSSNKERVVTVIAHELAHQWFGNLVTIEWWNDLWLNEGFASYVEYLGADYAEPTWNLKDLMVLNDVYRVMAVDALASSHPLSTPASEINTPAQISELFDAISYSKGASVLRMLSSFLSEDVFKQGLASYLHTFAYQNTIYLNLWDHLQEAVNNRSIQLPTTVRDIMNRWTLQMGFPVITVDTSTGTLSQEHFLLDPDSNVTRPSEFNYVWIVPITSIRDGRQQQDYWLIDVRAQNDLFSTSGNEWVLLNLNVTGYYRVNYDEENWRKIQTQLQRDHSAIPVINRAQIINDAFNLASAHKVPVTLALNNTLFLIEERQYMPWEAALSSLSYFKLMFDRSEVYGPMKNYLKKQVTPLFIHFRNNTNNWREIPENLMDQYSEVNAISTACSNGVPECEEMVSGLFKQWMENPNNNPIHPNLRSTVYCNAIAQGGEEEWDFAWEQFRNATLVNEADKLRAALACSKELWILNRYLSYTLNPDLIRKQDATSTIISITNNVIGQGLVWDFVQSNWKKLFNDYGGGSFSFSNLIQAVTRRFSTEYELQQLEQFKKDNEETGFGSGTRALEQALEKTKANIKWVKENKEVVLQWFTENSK
- Assay name: Inhibition of alanyl aminopeptidase enzymatic activity, fluorogenic substrate (Ala)2-rhodamine 110
- Type: biochemical
- Test context: Table 3, unstarred values; read-out: IC50APN
pIC50: −log10 of the molar value.
Observable: pIC50

{"Compound": "Cc1ccc(/C=N/NC(=O)c2cccc(NC(=O)c3ccc(F)cc3)c2)o1 [A3.038]", "Number": 5.01}
{"Compound": "Cc1ccc(C(=O)N/C(=C\\c2ccco2)C(=O)N2CCCN(C)CC2)cc1C [A3.194]", "Number": 4.49}
{"Compound": "O=C(N/C(=C\\c1ccco1)C(=O)N1CCCCC1)c1ccco1 [A3.040]", "Number": 4.97}
{"Compound": "O=C(Nc1cccc(/N=C/c2cc(I)cc(I)c2O)c1)c1ccco1 [A3.009]", "Number": 5.52}
{"Compound": "O=C(N/N=C/c1ccco1)c1ccccc1 [A3.227]", "Number": 4.42}
{"Compound": "CCOc1ccc(-c2cc(C(=O)N/N=C/c3ccco3)[nH]n2)cc1OC [A3.201]", "Number": 4.48}
{"Compound": "O=C(O)c1ccc2c(c1)C(=O)/C(=C\\c1ccco1)C2=O [A3.144]", "Number": 4.63}
{"Compound": "Nc1nonc1-n1nnc(C(=O)N/N=C/c2ccco2)c1-c1ccccc1 [A3.249]", "Number": 4.33}
{"Compound": "O=C(/C=C/c1ccco1)Nc1ccc(C(=O)O)cc1 [A3.033]", "Number": 5.08}
{"Compound": "CSc1nnc2n(/N=C/c3ccco3)cnn12 [A3.213]", "Number": 4.46}

* * *

- System under test: UniProtKB P15144
- Assay name: Inhibition of alanyl aminopeptidase enzymatic activity, fluorogenic substrate (Ala)2-rhodamine 110
- Assay type: biochemical
- Test context: Table 3, starred values = ID50; read-out: ID50 APN (values marked with *)
pIC50: −log10 of the molar value.

{"Compound": "COC(=O)c1cc(C(=O)NC2CCSC2=O)cc([N+](=O)[O-])c1 (centres unmarked) [A3.341]", "pIC50": 3.62}
{"Compound": "C/C(=N\\NC(=O)c1ccn(C)n1)c1ccco1 [A3.349]", "pIC50": 3.49}
{"Compound": "CCOC(=O)c1c(-c2ccccc2)c[nH]c1N [A3.336]", "pIC50": 3.77}
{"Compound": "O=C(N/N=C/c1ccco1)c1ccc(NCc2ccccc2)cc1 [A3.346]", "pIC50": 3.53}
{"Compound": "C/C(=C\\c1ccc(C(C)C)cc1)C1NCC(c2ccc([N+](=O)[O-])cc2)O1 (centres unmarked) [A3.345]", "pIC50": 3.53}

* * *

- System under test: UniProt:P15144
- Assay name: Inhibition of alanyl aminopeptidase enzymatic activity, fluorogenic substrate (Ala)2-rhodamine 110
- Type: biochemical
- Test context: Table 14; read-out: IC50APN
pIC50: −log10 of the molar value.
Observable: pIC50

{"Smiles str": "CCOC(=O)C1=C2SCC(=O)N2C(N)=C(C#N)C1", "Observable": "pIC50", "Number": 4.64}
{"Smiles str": "COC(=O)C1=C(N)N2C(=O)CSC2=C(C(=O)OC(C)C)C1", "Observable": "pIC50", "Number": 5.23}
